pIC50 values by entry
system: RAW264.7; experiment: Antiinflammatory activity in mouse RAW264.7 cells assessed as inhibition of LPS-induced NO production after 24 hrs by Griess method; assay type: functional, cell-based; conditions: RAW264.7, 24 h
pIC50: −log10 of the molar value.

In the examples that follow, each entry is paired with its recorded pIC50.
compound | pIC50
COC1(OC)COc2cc(O)ccc2-c2cc(O)c(O)cc2C1 | < 4.30
CO[C@H]1[C@]2(O)COC3=CC(=O)C=C[C@@]31c1cc(O)c(O)cc1C2 | < 4.30
COc1cc2c(cc1O)[C@@H]1c3ccc(O)cc3OC[C@]1(O)C2 | < 4.30
Oc1ccc2c(c1)OC[C@@H]1Cc3cc(O)c(O)cc3[C@H]21 | 4.44
CC1(C)O[C@H]2c3ccc(O)cc3OC[C@@]2(Cc2ccc(O)cc2)O1 | < 4.30
COc1cc(O)ccc1C(=O)/C=C/c1ccc(O)cc1 | 5.09
COc1cc(C[C@@]2(O)COc3cc(O)ccc3[C@@H]2OC)ccc1O | < 4.30
COc1cc2c(cc1O)C[C@@]1(O)COc3cc(O)ccc3[C@@H]21 | < 4.30

-- ask Endpoint output: pIC50 of `Oc1ccc2c(c1)OC[C@]1(O)Cc3cc(O)c(O)cc3[C@H]21` . Value?
-- reply 4.36

-- ask Endpoint output: pIC50 of `O=C(c1ccc(O)cc1O)[C@@H](O)Cc1ccc(O)cc1` . Value?
-- reply < 4.30

-- ask Endpoint output: pIC50 of `COc1cc(C[C@@]23COc4cc(O)ccc4[C@@H]2OC(C)(C)O3)ccc1O` . Value?
-- reply < 4.30

-- ask Endpoint output: pIC50 of `Oc1ccc2c(c1)OC[C@]1(O)Cc3c(ccc(O)c3O)[C@H]21` . Value?
-- reply < 4.30
